test: Solubility test of GPR 119 agonist compounds (Nephelostar); format: physicochemical; details: aqueous with cosolvent or surfactant or cyclodextrin, kinetic from dmso stock; pH 8, 5% DMSO aqueous solution; read-out: Solubility pH 8
Test readout: solubility (µg/mL)
Provide only the numeric value, understood in µg/mL.

Illustrative cases are given below, each with its answer.
C[C@@]1(C(N)=O)C[C@@H](O)CN1C(=O)c1ccc(-c2ccc(OCC3CCN(CC4(C(F)(F)F)CCC4)CC3)nc2)c(F)c1 [Compound 1325] = 114
CC(C)(CN1CCC(COc2ccc(-c3ccc(C(=O)N4C[C@H](O)C[C@@]4(C)C(N)=O)c(F)c3)nc2)CC1)C(F)(F)F [Compound 1294] = 52
CCc1cnc(N2CCC(c3nc(COc4ccc(-n5cnnn5)cc4)cs3)CC2)nc1 [MBX-2982, reference compound] = 39
C[C@@]1(C(N)=O)C[C@@H](O)CN1C(=O)c1ccc(-c2ccc(OCC3CCN(CC4(C(F)(F)F)CCC4)CC3)cn2)c(F)c1 [Compound 1329] = 112

Lab note: measured solubility of NC(=O)[C@@H]1C[C@@H](O)CN1C(=O)c1ccc(-c2ccc(OCC3CCN(CC4(C(F)(F)F)CCC4)CC3)cn2)c(F)c1 [Compound 1286] was 108

// solubility lookup, compound = C[C@@]1(C(N)=O)C[C@@H](O)CN1C(=O)c1ccc(-c2ccc(OCC3CCN(CC4(C(F)(F)F)CCC4)CC3)cn2)cc1F [Compound 1290] , result: 102

Noted for CCC(F)(CC)CN1CCC(COc2ccc(-c3ccc(C(=O)N4C[C@H](O)C[C@H]4C(N)=O)c(F)c3)nc2)CC1 [Compound 1279] : its solubility reads 133

compound CCC(F)(CC)CN1CCC(COc2ccc(-c3ccc(C(=O)N4C[C@H](O)C[C@H]4C(N)=O)cc3F)cc2)CC1 [Compound 1205] , solubility observed: 55

Given item CC(C)(CN1CCC(COc2ccc(-c3ccc(C(=O)N4C[C@H](O)C[C@H]4C(N)=O)cc3F)nc2)CC1)C(F)(F)F [Compound 1323] , the value recorded as its solubility is 88

Consider CC(C)(CN1CCC(COc2ccc(-c3ccc(C(=O)N4C[C@H](O)C[C@H]4C(N)=O)cc3)nc2)CC1)C(F)(F)F [Compound 1322] . Its measured solubility is 89

---

Biological target: human GPR119 receptor (Homo sapiens, UniProt Q8TDV5)
Construct: host or cells: GeneBLAzer T-Rex GPR 119 CHO-K1 DA cells (CHO-K1)
Sequence (Q8TDV5 1-335): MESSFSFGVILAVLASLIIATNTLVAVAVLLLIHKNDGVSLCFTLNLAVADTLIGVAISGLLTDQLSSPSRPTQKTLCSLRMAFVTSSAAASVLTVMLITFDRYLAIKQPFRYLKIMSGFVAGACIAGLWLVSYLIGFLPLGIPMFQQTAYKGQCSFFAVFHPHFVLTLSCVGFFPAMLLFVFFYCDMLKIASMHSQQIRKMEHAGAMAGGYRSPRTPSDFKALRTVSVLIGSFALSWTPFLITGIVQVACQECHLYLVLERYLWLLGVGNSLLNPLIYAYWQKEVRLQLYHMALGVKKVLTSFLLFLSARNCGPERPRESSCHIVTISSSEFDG
Assay: Activity test for human GPR119 receptor (GeneBLAzer T-Rex GPR 119 CHO-K1 DA cells)
Assay type: cell-based
Details: human GPR119 receptor expressing CHO-K1 cells, 5 hours treatment; read-out: hGPR119 EC50
Test readout: pEC50
pEC50 field: float, defined as -log10 of concentration (mol/L).

Consider the worked cases shown below.
NC(=O)[C@@H]1CCCN1C(=O)c1ccc(-c2ccc(OCC3CCN(CC(F)(F)C(F)(F)F)CC3)cc2)cc1F = 10.00
NC(=O)[C@@H]1C[C@@H](O)CN1C(=O)c1ccc(-c2ccc(OCC3CCN(CC4(C(F)(F)F)CCC4)CC3)cn2)cc1F = 7.42

Please fill in: pEC50 reported for NC(=O)[C@@H]1C[C@@H](O)CN1C(=O)c1ccc(-c2ccc(OCC3CCN(CC4(C(F)(F)F)CCC4)CC3)cc2)c(F)c1 = 8.70
